# subject_of_test: T1, human CD112R on Jurkat CD112R effector cells (human, UniProt Q6DKI7 1-326)
# T1 sequence (looked up): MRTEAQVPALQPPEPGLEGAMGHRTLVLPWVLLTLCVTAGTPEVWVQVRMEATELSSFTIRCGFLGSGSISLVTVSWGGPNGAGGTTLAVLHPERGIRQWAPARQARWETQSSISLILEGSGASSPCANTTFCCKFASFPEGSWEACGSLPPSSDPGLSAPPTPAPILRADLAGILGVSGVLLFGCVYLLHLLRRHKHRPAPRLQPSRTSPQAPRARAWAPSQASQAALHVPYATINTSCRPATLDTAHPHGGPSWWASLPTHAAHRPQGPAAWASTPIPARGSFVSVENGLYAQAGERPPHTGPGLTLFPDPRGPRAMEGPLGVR
# assay_procedure: cell-based or functional assay
Known EC50, CD112R/CD112 reporter of a selection of binders
Answer format: value, then unit.

Example cases with answers are listed next.
binder: Hu14 (antibody, IgG4, V domains shown, humanized IgG4) VH: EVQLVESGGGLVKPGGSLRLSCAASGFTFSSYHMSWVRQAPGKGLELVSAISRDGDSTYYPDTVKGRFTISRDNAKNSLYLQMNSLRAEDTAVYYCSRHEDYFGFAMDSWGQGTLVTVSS VL: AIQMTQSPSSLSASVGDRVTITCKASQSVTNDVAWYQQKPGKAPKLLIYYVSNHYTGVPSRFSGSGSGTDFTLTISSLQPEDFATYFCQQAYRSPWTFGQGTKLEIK
measured_property: EC50, CD112R/CD112 reporter
result: 0.0225 µg/mL

binder: Hu8 (antibody, IgG4, V domains shown, humanized IgG4; also called Hu-08) VH: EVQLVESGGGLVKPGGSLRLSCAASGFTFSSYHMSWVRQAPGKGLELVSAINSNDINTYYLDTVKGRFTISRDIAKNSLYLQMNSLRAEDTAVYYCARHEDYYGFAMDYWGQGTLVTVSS VL: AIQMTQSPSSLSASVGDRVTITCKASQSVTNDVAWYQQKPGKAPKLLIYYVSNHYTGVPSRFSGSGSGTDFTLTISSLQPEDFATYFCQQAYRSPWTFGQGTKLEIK
measured_property: EC50, CD112R/CD112 reporter
result: 0.0633 µg/mL

binder: Hu28 (antibody, IgG4, V domains shown, humanized IgG4) VH: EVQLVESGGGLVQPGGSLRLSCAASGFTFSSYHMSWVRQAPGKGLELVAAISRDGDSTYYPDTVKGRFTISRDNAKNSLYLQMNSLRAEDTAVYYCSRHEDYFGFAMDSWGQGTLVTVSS VL: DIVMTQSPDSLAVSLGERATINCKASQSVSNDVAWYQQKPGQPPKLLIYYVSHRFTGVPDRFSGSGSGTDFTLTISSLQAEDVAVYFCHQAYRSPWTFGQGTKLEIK
measured_property: EC50, CD112R/CD112 reporter
result: 0.0306 µg/mL

binder: Hu32 (antibody, IgG4, V domains shown, humanized IgG4) VH: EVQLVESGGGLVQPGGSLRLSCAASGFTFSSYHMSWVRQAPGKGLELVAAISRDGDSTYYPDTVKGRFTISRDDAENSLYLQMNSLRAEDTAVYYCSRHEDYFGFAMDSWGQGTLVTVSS VL: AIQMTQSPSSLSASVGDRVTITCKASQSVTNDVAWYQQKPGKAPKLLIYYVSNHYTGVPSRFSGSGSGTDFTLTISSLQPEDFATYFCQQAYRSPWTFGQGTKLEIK
measured_property: EC50, CD112R/CD112 reporter
result: 0.0471 µg/mL

Problem: Query: EC50, CD112R/CD112 reporter; subject: Hu41 (antibody, IgG4, V domains shown) VH: EVQLVESGGGLVQPGGSLRLSCAASGFTFSSYHMSWVRQAPGKGLELVSAINSNVISTYYLDTVKGRFTISRDNAKNSLYLQMNSLRAEDTAVYYCARHEDYYGFAMDYWGQGTLVTVSS VL: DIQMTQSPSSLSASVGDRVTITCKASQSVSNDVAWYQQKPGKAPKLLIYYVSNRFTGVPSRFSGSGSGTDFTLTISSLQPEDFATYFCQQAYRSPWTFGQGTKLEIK
Solution: 0.0267 µg/mL
